# ASSAYED SYSTEM: T1, rhesus CD11a (rhesus) (UniProt H9Z8N3)
# T1 sequence: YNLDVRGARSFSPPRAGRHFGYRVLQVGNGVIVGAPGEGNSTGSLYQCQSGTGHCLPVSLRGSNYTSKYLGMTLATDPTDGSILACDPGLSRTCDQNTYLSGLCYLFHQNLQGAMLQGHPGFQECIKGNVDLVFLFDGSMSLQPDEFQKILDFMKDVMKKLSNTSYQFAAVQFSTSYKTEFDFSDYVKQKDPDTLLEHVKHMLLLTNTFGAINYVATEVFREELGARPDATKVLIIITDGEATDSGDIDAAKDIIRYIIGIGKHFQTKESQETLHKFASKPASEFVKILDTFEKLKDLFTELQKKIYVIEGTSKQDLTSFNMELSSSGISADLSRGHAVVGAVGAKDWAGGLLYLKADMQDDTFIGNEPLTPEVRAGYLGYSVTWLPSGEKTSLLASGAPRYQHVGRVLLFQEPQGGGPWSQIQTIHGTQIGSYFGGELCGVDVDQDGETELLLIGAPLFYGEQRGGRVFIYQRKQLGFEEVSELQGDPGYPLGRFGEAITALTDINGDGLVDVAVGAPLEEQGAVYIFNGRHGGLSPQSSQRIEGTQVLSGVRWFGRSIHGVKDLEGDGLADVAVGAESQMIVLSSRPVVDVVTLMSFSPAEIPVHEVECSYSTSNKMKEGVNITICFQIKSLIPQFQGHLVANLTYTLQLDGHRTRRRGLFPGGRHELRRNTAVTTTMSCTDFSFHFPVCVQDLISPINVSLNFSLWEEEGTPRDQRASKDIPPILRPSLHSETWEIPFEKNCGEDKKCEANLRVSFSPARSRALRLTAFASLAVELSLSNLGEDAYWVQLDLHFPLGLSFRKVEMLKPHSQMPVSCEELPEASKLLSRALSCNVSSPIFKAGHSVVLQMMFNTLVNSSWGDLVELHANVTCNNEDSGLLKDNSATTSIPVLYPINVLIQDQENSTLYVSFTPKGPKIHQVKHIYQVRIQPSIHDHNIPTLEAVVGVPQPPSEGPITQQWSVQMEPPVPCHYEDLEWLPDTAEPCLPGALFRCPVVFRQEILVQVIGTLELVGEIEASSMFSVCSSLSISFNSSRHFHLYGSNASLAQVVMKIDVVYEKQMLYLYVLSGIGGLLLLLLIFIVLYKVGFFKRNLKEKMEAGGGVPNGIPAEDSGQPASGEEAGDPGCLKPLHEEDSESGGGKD
# PROTOCOL DETAILS: binding to rhesus peripheral blood lymphocytes
OBSERVED PROPERTY: Var.EC50/HuIgG1 EC50
Lab note: record the figure alone, no unit after it.

query: Please report the recorded Var.EC50/HuIgG1 EC50 for LysH62Ala variant IgG1 (antibody, V domains shown) VH: EVQLVESGGGLVQPGGSLRLSCAASGYSFTGHWMNWVRQAPGKGLEWVGMIHPSDSETRYNQAFKDRFTISVDKSKNTLYLQMNSLRAEDTAVYYCARGIYFYGTTYFDYWGQGTLVTVSS VL: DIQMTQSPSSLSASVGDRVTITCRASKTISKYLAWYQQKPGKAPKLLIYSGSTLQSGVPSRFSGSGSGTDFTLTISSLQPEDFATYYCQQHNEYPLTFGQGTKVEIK .
result: 4.9
